Please provide measured CC50 at 24 h for the entries that follow.
# assayProcedure: Cytotoxicity assay on Vero cells (resazurin)
# Assay type: cell-based, African green monkey
# cond: African green monkey, Vero cells (ATCC CRL-1587), 24 h treatment
// return numeric value only (unit: µM, not printed)

Summary for this compound, Cc1ccc(S(=O)(=O)NNC(=S)Nc2ccc([N+](=O)[O-])cc2)cc1 [HL5^NO2Ph] : CC50 at 24 h is 26.6

Summary for this compound, Cc1ccc(S(=O)(=O)NNC(=S)Nc2ccc(Cl)cc2)cc1 [HL4^ClPh] : CC50 at 24 h is 16.8

Summary for this compound, Cc1ccc(S(=O)(=O)NNC(=S)Nc2ccc(F)cc2)cc1 [HL3^FPh] : CC50 at 24 h is 292

Summary for this compound, C=CCNC(=S)NNS(=O)(=O)c1ccc(C)cc1 [HL6^Al, N-allyl-2-tosylhydrazinocarbothioamide] : CC50 at 24 h is 188

Summary for this compound, Cc1ccc(S(=O)(=O)NNC(=S)Nc2ccccc2)cc1 [HL2^Ph] : CC50 at 24 h is 268

Summary for this compound, Cc1ccc(S(=O)(=O)NNC(=S)NC2CCCCC2)cc1 [HL1^Ch] : CC50 at 24 h is 293

----------
# Test system: Leishmania braziliensis
# assayProcedure: Leishmanicidal activity against promastigotes (resazurin)
# Assay type: cell-based
# cond: Leishmania braziliensis; promastigote form, 24 h treatment, resazurin; read-out: IC50 L. braziliensis
Please provide measured pIC50 for the entries that follow.
Units for pIC50: none; it is -log10 of a concentration expressed in mol/L.

Summary for this molecule, Cc1ccc(S(=O)(=O)NNC(=S)Nc2ccc([N+](=O)[O-])cc2)cc1 : pIC50 is 4.72

Summary for this molecule, Cc1ccc(S(=O)(=O)NNC(=S)Nc2ccccc2)cc1 : pIC50 is 3.56

Summary for this molecule, Cc1ccc(S(=O)(=O)NNC(=S)NC2CCCCC2)cc1 : pIC50 is 3.89

Summary for this molecule, Cc1ccc(S(=O)(=O)NNC(=S)Nc2ccc(F)cc2)cc1 : pIC50 is 3.69

Summary for this molecule, Cc1ccc(S(=O)(=O)NNC(=S)Nc2ccc(Cl)cc2)cc1 : pIC50 is 3.87

Summary for this molecule, C=CCNC(=S)NNS(=O)(=O)c1ccc(C)cc1 [HL6^Al, N-allyl-2-tosylhydrazinocarbothioamide] : pIC50 is 3.50

----------
# Tested on: Leishmania braziliensis
# assayProcedure: Leishmanicidal activity against promastigotes (resazurin)
# Type: cell-based
# cond: selectivity index = CC50 (Vero) / IC50 (L. braziliensis promastigotes)
Just a reminder that ties go to not met: only SI L. braziliensis strictly below 0.3 counts as met.

Strictly below 0.3 in SI L. braziliensis? Cc1ccc(S(=O)(=O)NNC(Nc2ccc(F)cc2)=[S][Au+][S]=C(NNS(=O)(=O)c2ccc(C)cc2)Nc2ccc(F)cc2)cc1.[Cl-] [Au3, [Au(HL3^FPh)2]Cl]
met

Strictly below 0.3 in SI L. braziliensis? Cc1ccc(S(=O)(=O)NNC(Nc2ccc(Cl)cc2)=[S][Ag+][S]=C(NNS(=O)(=O)c2ccc(C)cc2)Nc2ccc(Cl)cc2)cc1.O=[N+]([O-])[O-] [Ag4, [Ag(HL4^ClPh)2]NO3]
not met

Strictly below 0.3 in SI L. braziliensis? Cc1ccc(S(=O)(=O)NNC(=S)Nc2ccc(Cl)cc2)cc1
met

Strictly below 0.3 in SI L. braziliensis? C=CCNC(NNS(=O)(=O)c1ccc(C)cc1)=[S][Ag+][S]=C(NCC=C)NNS(=O)(=O)c1ccc(C)cc1.O=[N+]([O-])[O-] [Ag6, [Ag(HL6^Al)2]NO3]
not met

Strictly below 0.3 in SI L. braziliensis? Cc1ccc(S(=O)(=O)NNC(=S)Nc2ccc(F)cc2)cc1
not met

Strictly below 0.3 in SI L. braziliensis? Cc1ccc(S(=O)(=O)NNC(Nc2ccc(Cl)cc2)=[S][Au+][S]=C(NNS(=O)(=O)c2ccc(C)cc2)Nc2ccc(Cl)cc2)cc1.[Cl-] [Au4, [Au(HL4^ClPh)2]Cl]
met

Strictly below 0.3 in SI L. braziliensis? Cc1ccc(S(=O)(=O)NNC(Nc2ccc([N+](=O)[O-])cc2)=[S][Au+][S]=C(NNS(=O)(=O)c2ccc(C)cc2)Nc2ccc([N+](=O)[O-])cc2)cc1.[Cl-] [Au5, [Au(HL5^NO2Ph)2]Cl]
met

Strictly below 0.3 in SI L. braziliensis? Cc1ccc(S(=O)(=O)NNC(Nc2ccccc2)=[S][Au+][S]=C(NNS(=O)(=O)c2ccc(C)cc2)Nc2ccccc2)cc1.[Cl-] [Au2, [Au(HL2^Ph)2]Cl]
not met

Strictly below 0.3 in SI L. braziliensis? Cc1ccc(S(=O)(=O)NNC(=S)Nc2ccccc2)cc1
not met

Strictly below 0.3 in SI L. braziliensis? Cc1ccc(S(=O)(=O)NNC(=S)Nc2ccc([N+](=O)[O-])cc2)cc1
not met

Strictly below 0.3 in SI L. braziliensis? C=CCNC(NNS(=O)(=O)c1ccc(C)cc1)=[S][Au+][S]=C(NCC=C)NNS(=O)(=O)c1ccc(C)cc1.[Cl-] [Au6, [Au(HL6^Al)2]Cl]
met

Strictly below 0.3 in SI L. braziliensis? Cc1ccc(S(=O)(=O)NNC(Nc2ccccc2)=[S][Ag+][S]=C(NNS(=O)(=O)c2ccc(C)cc2)Nc2ccccc2)cc1.O=[N+]([O-])[O-] [Ag2, [Ag(HL2^Ph)2]NO3]
not met

Strictly below 0.3 in SI L. braziliensis? C=CCNC(=S)NNS(=O)(=O)c1ccc(C)cc1 [HL6^Al, N-allyl-2-tosylhydrazinocarbothioamide]
not met

Strictly below 0.3 in SI L. braziliensis? Cc1ccc(S(=O)(=O)NNC(NC2CCCCC2)=[S][Ag+][S]=C(NNS(=O)(=O)c2ccc(C)cc2)NC2CCCCC2)cc1.O=[N+]([O-])[O-] [Ag1, [Ag(HL1^Ch)2]NO3]
met

Strictly below 0.3 in SI L. braziliensis? Cc1ccc(S(=O)(=O)NNC(NC2CCCCC2)=[S][Au+][S]=C(NNS(=O)(=O)c2ccc(C)cc2)NC2CCCCC2)cc1.[Cl-] [Au1, [Au(HL1^Ch)2]Cl]
met

Strictly below 0.3 in SI L. braziliensis? Cc1ccc(S(=O)(=O)NNC(Nc2ccc(F)cc2)=[S][Ag+][S]=C(NNS(=O)(=O)c2ccc(C)cc2)Nc2ccc(F)cc2)cc1.O=[N+]([O-])[O-] [Ag3, [Ag(HL3^FPh)2]NO3]
not met

Strictly below 0.3 in SI L. braziliensis? Cc1ccc(S(=O)(=O)NNC(=S)NC2CCCCC2)cc1
not met

Strictly below 0.3 in SI L. braziliensis? Cc1ccc(S(=O)(=O)NNC(Nc2ccc([N+](=O)[O-])cc2)=[S][Ag+][S]=C(NNS(=O)(=O)c2ccc(C)cc2)Nc2ccc([N+](=O)[O-])cc2)cc1.O=[N+]([O-])[O-] [Ag5, [Ag(HL5^NO2Ph)2]NO3]
not met

----------
# Test system: Leishmania braziliensis
# assayProcedure: Leishmanicidal activity against promastigotes (resazurin)
# Format: cell-based
# cond: promastigote form, 24 h treatment, resazurin; read-out: IC50 L. braziliensis
endpointLabel: IC50 (µM)
// return numeric value only (unit: µM, not printed)

Summary for this compound, Cc1ccc(S(=O)(=O)NNC(Nc2ccccc2)=[S][Ag+][S]=C(NNS(=O)(=O)c2ccc(C)cc2)Nc2ccccc2)cc1.O=[N+]([O-])[O-] [Ag2, [Ag(HL2^Ph)2]NO3] : IC50 is 184

Summary for this compound, Cc1ccc(S(=O)(=O)NNC(Nc2ccccc2)=[S][Au+][S]=C(NNS(=O)(=O)c2ccc(C)cc2)Nc2ccccc2)cc1.[Cl-] [Au2, [Au(HL2^Ph)2]Cl] : IC50 is 143

Summary for this compound, C=CCNC(NNS(=O)(=O)c1ccc(C)cc1)=[S][Au+][S]=C(NCC=C)NNS(=O)(=O)c1ccc(C)cc1.[Cl-] [Au6, [Au(HL6^Al)2]Cl] : IC50 is 5550

Summary for this compound, Cc1ccc(S(=O)(=O)NNC(NC2CCCCC2)=[S][Au+][S]=C(NNS(=O)(=O)c2ccc(C)cc2)NC2CCCCC2)cc1.[Cl-] [Au1, [Au(HL1^Ch)2]Cl] : IC50 is 77.4

Summary for this compound, Cc1ccc(S(=O)(=O)NNC(NC2CCCCC2)=[S][Ag+][S]=C(NNS(=O)(=O)c2ccc(C)cc2)NC2CCCCC2)cc1.O=[N+]([O-])[O-] [Ag1, [Ag(HL1^Ch)2]NO3] : IC50 is 50.1

Summary for this compound, Cc1ccc(S(=O)(=O)NNC(Nc2ccc(Cl)cc2)=[S][Au+][S]=C(NNS(=O)(=O)c2ccc(C)cc2)Nc2ccc(Cl)cc2)cc1.[Cl-] [Au4, [Au(HL4^ClPh)2]Cl] : IC50 is 278

Summary for this compound, Cc1ccc(S(=O)(=O)NNC(Nc2ccc(F)cc2)=[S][Au+][S]=C(NNS(=O)(=O)c2ccc(C)cc2)Nc2ccc(F)cc2)cc1.[Cl-] [Au3, [Au(HL3^FPh)2]Cl] : IC50 is 195

Summary for this compound, C=CCNC(NNS(=O)(=O)c1ccc(C)cc1)=[S][Ag+][S]=C(NCC=C)NNS(=O)(=O)c1ccc(C)cc1.O=[N+]([O-])[O-] [Ag6, [Ag(HL6^Al)2]NO3] : IC50 is 305

Summary for this compound, Cc1ccc(S(=O)(=O)NNC(Nc2ccc([N+](=O)[O-])cc2)=[S][Au+][S]=C(NNS(=O)(=O)c2ccc(C)cc2)Nc2ccc([N+](=O)[O-])cc2)cc1.[Cl-] [Au5, [Au(HL5^NO2Ph)2]Cl] : IC50 is 284

Summary for this compound, Cc1ccc(S(=O)(=O)NNC(Nc2ccc(F)cc2)=[S][Ag+][S]=C(NNS(=O)(=O)c2ccc(C)cc2)Nc2ccc(F)cc2)cc1.O=[N+]([O-])[O-] [Ag3, [Ag(HL3^FPh)2]NO3] : IC50 is 234

Summary for this compound, Cc1ccc(S(=O)(=O)NNC(Nc2ccc(Cl)cc2)=[S][Ag+][S]=C(NNS(=O)(=O)c2ccc(C)cc2)Nc2ccc(Cl)cc2)cc1.O=[N+]([O-])[O-] [Ag4, [Ag(HL4^ClPh)2]NO3] : IC50 is 84.6

Summary for this compound, Cc1ccc(S(=O)(=O)NNC(Nc2ccc([N+](=O)[O-])cc2)=[S][Ag+][S]=C(NNS(=O)(=O)c2ccc(C)cc2)Nc2ccc([N+](=O)[O-])cc2)cc1.O=[N+]([O-])[O-] [Ag5, [Ag(HL5^NO2Ph)2]NO3] : IC50 is 90.7
